Field: pIC50. Provide a value for each of the compounds that follow.
# Tested on: HCV replicon 1B
# testSummary: Cell-based HCV Replicon Assay B, replicon 1B
# setupConditions: Hepatitis C virus
One number for each entry, as −log10 of the molar value.

Fill in: pIC50 of COC(=O)NC(C(=O)N1CCC[C@H]1c1ncc(-c2ccc3c(c2)cc2n3C(c3cnc(C4CCC4)s3)Oc3cc(-c4cnc([C@@H]5CCCN5C(=O)[C@@H](NC(=O)OC)C(C)C)[nH]4)cc(C)c3-2)[nH]1)C1CCOC(C)(C)C1 (single isomer, unassigned) is ___
11.10

Go through the list and state pIC50 for each entry.
1. COC(=O)NC(C(=O)N1CCC[C@H]1c1ncc(-c2ccc3c(c2)cc2n3C(c3cnc(C(C)(C)O)s3)Oc3cc(-c4cnc([C@@H]5CCCN5C(=O)[C@@H](NC(=O)OC)C(C)C)[nH]4)cc(F)c3-2)[nH]1)C1C[C@@H](C)O[C@@H](C)C1 (single isomer, unassigned)
2. COC(=O)N[C@H](C(=O)N1CCC[C@H]1c1ncc(-c2cc(F)c3c(c2)OC(c2cnc(-c4ccccn4)s2)n2c-3cc3cc(-c4cnc([C@@H]5CCCN5C(=O)[C@@H](NC(=O)OC)C(C)C)[nH]4)ccc32)[nH]1)C(C)C (mixture of isomers)
3. COC(=O)N[C@H](C(=O)N1CCC[C@H]1c1ncc(-c2cc(F)c3c(c2)OC(c2cnc(C4CCOCC4)s2)n2c-3cc3cc(-c4cnc([C@@H]5CCCN5C(=O)[C@@H](NC(=O)OC)C(C)C)[nH]4)ccc32)[nH]1)C(C)C (single isomer, unassigned)
4. COC(=O)N[C@H](C(=O)N1CCC[C@H]1c1ncc(-c2cc(F)c3c(c2)OC(c2cncs2)n2c-3cc3cc(-c4cnc([C@@H]5CCCN5C(=O)[C@@H](NC(=O)OC)C(C)C)[nH]4)ccc32)[nH]1)C(C)C (single isomer, unassigned)
5. COC(=O)NC(C(=O)N1CCC[C@H]1c1ncc(-c2ccc3c(c2)cc2n3C(c3cnc(C)s3)Oc3cc(-c4cnc([C@@H]5CCCN5C(=O)[C@@H](NC(=O)OC)C(C)C)[nH]4)cc(F)c3-2)[nH]1)C1C[C@@H](C)O[C@@H](C)C1 (single isomer, unassigned)
6. COC(=O)N[C@H](C(=O)N1CCC[C@H]1c1ncc(-c2cc(F)c3c(c2)OC(c2nc4c(s2)CCC4)n2c-3cc3cc(-c4cnc([C@@H]5CCCN5C(=O)[C@@H](NC(=O)OC)C(C)C)[nH]4)ccc32)[nH]1)C(C)C (single isomer, unassigned)

1: 11.30; 2: 11.40; 3: 11.42; 4: 10.52; 5: 11.52; 6: 11.62
